target: CDK2:CCNE1 (Homo sapiens (Human)); experiment: NanoBRET assay in MCF-7 cells, CDK2; settings: transfected MCF-7 cells, 2 hours, n = 1 or average
measured.metric: pIC50
pIC50 here: minus log base 10 of the concentration, concentration in moles per litre.

[in] Write pIC50 of CCNS(=O)(=O)N1CC[C@H](Nc2nc(N[C@@H](CO)C3CC3)nc3c2ncn3C)C1 ; system used: CDK2:CCNE1 (Homo sapiens (Human))
[out] 7.57

[in] Write pIC50 of CCNS(=O)(=O)N1C[C@@H](F)[C@H](Nc2nc(N[C@@H](CO)C3CC3)nc3c2ncn3C)C1 (relative stereo) ; system used: CDK2:CCNE1 (Homo sapiens (Human))
[out] 7.41

[in] Write pIC50 of CCn1cnc2c(N[C@H]3CCN(S(=O)(=O)NC)C3)nc(-c3cccc4c3CC[C@H]4O)nc21 ; system used: CDK2:CCNE1 (Homo sapiens (Human))
[out] 7.54

[in] Write pIC50 of CCNS(=O)(=O)N1CC[C@H](Nc2nc(N[C@@H](CO)C3CC3)nc3c2ncn3C(F)F)C1 ; system used: CDK2:CCNE1 (Homo sapiens (Human))
[out] 8.22

[in] Write pIC50 of C[C@H](Nc1nc(N[C@@H]2CN(S(=O)(=O)c3ncc[nH]3)C[C@H]2F)c2ncn(C(F)F)c2n1)[C@@H](O)C(F)(F)F (relative stereo) ; system used: CDK2:CCNE1 (Homo sapiens (Human))
[out] 7.96

[in] Write pIC50 of CC(C)n1cnc2c(N[C@H]3CCN(S(C)(=O)=O)C3)nc(N[C@@H](CO)C3CC3)nc21 ; system used: CDK2:CCNE1 (Homo sapiens (Human))
[out] 7.72

[in] Write pIC50 of O=S(=O)(c1ncc[nH]1)N1C[C@@H](F)[C@H](Nc2nc(N[C@@H](CO)C3CC3)nc3c2ncn3C(F)F)C1 (relative stereo) ; system used: CDK2:CCNE1 (Homo sapiens (Human))
[out] 8.30

====

system: POLR2A Ser2 phosphorylation (CDK9); experiment: POLR2A Ser2 phosphorylation imaging assay in MCF-7 cells; assay type: cell-based; conditions: Homo sapiens, MCF7, 2 h, MCF-7 cells, 2 hours; read-out: POLR2A Ser2 phosphorylation IC50
measured.metric: IC50

[in] Quick one: give measured IC50 for CC(C)[C@H](CO)Nc1nc(N[C@H]2C[C@H](C)N(S(C)(=O)=O)C2)c2ncn(C(C)C)c2n1
[out] > 30 µM

[in] Quick one: give measured IC50 for C[C@H](Nc1nc(N[C@@H]2CN(S(=O)(=O)c3ncc[nH]3)C[C@H]2F)c2ncn(C(F)F)c2n1)[C@@H](O)C(F)(F)F (relative stereo)
[out] 4.4 µM

[in] Quick one: give measured IC50 for CCn1cnc2c(N[C@H]3CCN(S(=O)(=O)CF)C3)nc(N[C@@H](CO)C(C)C)nc21
[out] > 30 µM

[in] Quick one: give measured IC50 for CCn1cnc2c(N[C@@H]3CN(S(=O)(=O)c4ncc[nH]4)C[C@H]3F)nc(N[C@@H](CO)C3CC3)nc21 (relative stereo)
[out] 3.9 µM

[in] Quick one: give measured IC50 for CC[C@H](Nc1nc(N[C@@H]2CN(S(=O)(=O)NC)C[C@H]2F)c2ncn(CC)c2n1)[C@@H](C)O (relative stereo)
[out] 11.1 µM

[in] Quick one: give measured IC50 for CC[C@H](CO)Nc1nc(N[C@H]2CCN(S(=O)(=O)NC)C2)c2ncn(CC)c2n1
[out] > 30 µM

[in] Quick one: give measured IC50 for CC(C)[C@H](CO)Nc1nc(N[C@@H]2CN(S(C)(=O)=O)C[C@H]2C)c2ncn(C(C)C)c2n1
[out] > 30 µM

[in] Quick one: give measured IC50 for CCn1cnc2c(N[C@H]3CCN(S(=O)(=O)NC)C3)nc(-c3cccc4c3CNC4=O)nc21
[out] 13.3 µM

[in] Quick one: give measured IC50 for CC(C)[C@H](CO)Nc1nc(N[C@H]2CCN(S(C)(=O)=O)C2)c2ncn(C3CC3)c2n1
[out] > 30 µM

[in] Quick one: give measured IC50 for CC(C)n1cnc2c(N[C@H]3CCN(S(C)(=O)=O)C3)nc(N[C@@H](CO)C3CC3)nc21
[out] > 30 µM

[in] Quick one: give measured IC50 for CCNS(=O)(=O)N1CC[C@H](Nc2nc(N[C@@H](C)C(C)(C)O)nc3c2ncn3CC)C1 (relative stereo)
[out] > 30 µM

[in] Quick one: give measured IC50 for CC[C@@H](CO)Nc1nc(N[C@H]2CCN(S(=O)(=O)NC)C2)c2ncn(CC)c2n1
[out] > 30 µM

[in] Quick one: give measured IC50 for CCn1cnc2c(N[C@H]3CCN(S(=O)(=O)CC(F)(F)F)C3)nc(N[C@@H](CO)C(C)C)nc21
[out] > 30 µM

[in] Quick one: give measured IC50 for CCn1cnc2c(N[C@H]3CCN(S(=O)(=O)C4CC4)C3)nc(N[C@@H](CO)C(C)C)nc21
[out] > 30 µM

[in] Quick one: give measured IC50 for CC(C)[C@H](CO)Nc1nc(N[C@@H]2CN(S(C)(=O)=O)C[C@H]2F)c2ncn(C(C)C)c2n1
[out] > 30 µM

====

experiment: CLint assessment in human liver microsomes (HLM); format: in vitro ADME; conditions: 1 μM
Friendly reminder: HLM CLint below 40 µL/min/mg is Satisfied, at or above is Not satisfied.

[in] Threshold test, HLM CLint < 40 µL/min/mg: CCNS(=O)(=O)N1CC[C@H](Nc2nc(N[C@@H](CO)C3CC3)nc3c2ncn3C(F)F)C1
[out] Satisfied

[in] Threshold test, HLM CLint < 40 µL/min/mg: CCNS(=O)(=O)N1CC[C@H](Nc2nc(N[C@@H](C)C(C)(C)O)nc3c2ncn3CC)C1 (relative stereo)
[out] Satisfied

[in] Threshold test, HLM CLint < 40 µL/min/mg: CCn1cnc2c(N[C@H]3CCN(S(=O)(=O)NC)C3)nc(N[C@@H]3c4ccccc4C[C@@H]3O)nc21
[out] Not satisfied

[in] Threshold test, HLM CLint < 40 µL/min/mg: CC[C@H](CO)Nc1nc(N[C@H]2CCN(S(=O)(=O)NC)C2)c2ncn(CC)c2n1
[out] Satisfied

[in] Threshold test, HLM CLint < 40 µL/min/mg: CC(C)[C@H](CO)Nc1nc(N[C@H]2CCN(S(=O)(=O)C3CC3)C2)c2ncn(C(C)C)c2n1
[out] Not satisfied

[in] Threshold test, HLM CLint < 40 µL/min/mg: CCn1cnc2c(N[C@H]3CCN(S(=O)(=O)NC)C3)nc(N[C@@H](CC(F)(F)F)[C@@H](C)O)nc21 (relative stereo)
[out] Satisfied

[in] Threshold test, HLM CLint < 40 µL/min/mg: CCn1cnc2c(N[C@@H]3CN(S(=O)(=O)c4ncc[nH]4)C[C@H]3F)nc(N[C@@H](CO)C3CC3)nc21 (relative stereo)
[out] Not satisfied

[in] Threshold test, HLM CLint < 40 µL/min/mg: CCn1cnc2c(N[C@H]3CCN(S(=O)(=O)NC)C3)nc(N[C@@H](C)[C@@H](O)C(F)(F)F)nc21 (single isomer, unassigned) [Example 49]
[out] Satisfied

[in] Threshold test, HLM CLint < 40 µL/min/mg: CC[C@H](Nc1nc(N[C@H]2CCN(S(N)(=O)=O)C2)c2ncn(CC)c2n1)[C@@H](C)O
[out] Satisfied

====

Kindly state pIC50 for each of the entries shown.
system: POLR2A Ser2 phosphorylation (CDK9); experiment: POLR2A Ser2 phosphorylation imaging assay in MCF-7 cells; assay type: cell-based; settings: Homo sapiens, MCF7, 2 h, MCF-7 cells, 2 hours; read-out: POLR2A Ser2 phosphorylation IC50
pIC50: −log10 of the molar value.

[in] Quick one: give measured pIC50 for CCn1cnc2c(N[C@H]3CCN(S(=O)(=O)NC)C3)nc(-c3cccc4c3CC[C@]4(C)O)nc21 (relative stereo) [Example 3]
[out] 5.19

[in] Quick one: give measured pIC50 for O=S(=O)(c1ncc[nH]1)N1C[C@@H](F)[C@H](Nc2nc(N[C@@H](CO)C3CC3)nc3c2ncn3C(F)F)C1 (relative stereo) [Example 61]
[out] 5.77

[in] Quick one: give measured pIC50 for CC[C@H](Nc1nc(N[C@H]2CCN(S(=O)(=O)c3cnn(C)c3)C2)c2ncn(C(C)C)c2n1)[C@@H](C)O [Example 31]
[out] < 4.52

[in] Quick one: give measured pIC50 for CCn1cnc2c(N[C@H]3CCN(S(=O)(=O)CCOC)C3)nc(N[C@@H](CO)C(C)C)nc21 [Example 42]
[out] < 4.52

[in] Quick one: give measured pIC50 for CC[C@H](Nc1nc(N[C@H]2CCN(S(=O)(=O)c3ccn[nH]3)C2)c2ncn(CC)c2n1)[C@@H](C)O [Example 62]
[out] < 4.52

[in] Quick one: give measured pIC50 for CCNS(=O)(=O)N1C[C@@H](F)[C@H](Nc2nc(N[C@@H](CO)C3CC3)nc3c2ncn3C)C1 (relative stereo) [Example 26]
[out] 4.94

[in] Quick one: give measured pIC50 for CC[C@H](Nc1nc(N[C@H]2C[C@@H](C)N(S(C)(=O)=O)C2)c2ncn(C(C)C)c2n1)[C@@H](C)O [Example 37]
[out] < 4.52

[in] Quick one: give measured pIC50 for CC[C@H](CO)Nc1nc(N[C@H]2CCN(S(C)(=O)=O)C2)c2ncn(CC)c2n1 [Example 38]
[out] < 4.52

[in] Quick one: give measured pIC50 for CCn1cnc2c(N[C@H]3CCN(S(C)(=O)=O)C3)nc(N[C@@H](CO)C3CC3)nc21 [Example 39]
[out] < 4.52

[in] Quick one: give measured pIC50 for CCNS(=O)(=O)N1CC[C@H](Nc2nc(N[C@@H](CC)[C@@H](C)O)nc3c2ncn3C)C1 [Example 53]
[out] < 4.52

[in] Quick one: give measured pIC50 for CC(C)[C@H](CO)Nc1nc(N[C@H]2C[C@@H](C)N(S(C)(=O)=O)C2)c2ncn(C(C)C)c2n1 [Example 34]
[out] < 4.52

[in] Quick one: give measured pIC50 for CC[C@H](Nc1nc(N[C@H]2CCN(S(N)(=O)=O)C2)c2ncn(CC)c2n1)C(C)=O [Example 10]
[out] < 4.52

[in] Quick one: give measured pIC50 for CCNS(=O)(=O)N1CC[C@H](Nc2nc(N[C@@H](CO)CC3CC3)nc3c2ncn3CC)C1 (relative stereo) [Example 58]
[out] < 4.52

[in] Quick one: give measured pIC50 for CCn1cnc2c(N[C@H]3CCN(S(=O)(=O)NC)C3)nc(N[C@@H]3c4ccccc4C[C@@H]3O)nc21 [Example 51]
[out] 5.13
